System: HOP-62 NSCLC
experiment: NCI-60 one-dose screen, 48 h
measurement.setup: 10 µM unless noted
This is part of a sample that, as a whole, favours compounds with a hit. Of some 83,000 tested, about 20% had one in any assay. The source made the active and inactive calls. The calls were made as follows: active = growth percent below 10; inactive = the rest.
Classes used: True for active, False for inactive

                                   compound  assigned_class
0                Brc1ccc(-c2cnc3nonc3n2)cc1           False
1  Cc1cc2nc(-c3c(-c4ccc(F)cc4)nc4sccn34)[nH]c2cc1C           False
2  Cn1ncc2ccc(-c3nc(-c4ccccc4)[nH]c3-c3n[nH]c(=O)n3C3CC3)cc21           False
3  CNCc1cccc2c1OCCOCCN(C)C(=O)CN(C)S(=O)(=O)c1ccc(cc1)-c1cnc(N)c(n1)C(=O)N2            True
4  CC(=O)N(Cc1ccccc1)c1nc2ccc(O)c(CN(C)C)c2s1           False
5  CCN(CC)CCCC(C)Nc1ccc2cc(OC)ccc2n1 (stereo unspecified)           False

----------
Tested on: OVCAR-4 ovarian
experiment: NCI-60 one-dose screen, 48 h
measurement.setup: 10 µM unless noted
The panel holds about 83,000 compounds, 20% with a hit somewhere; the sample as a whole holds those more often. Calls of active or inactive are those of the source. The calls were made as follows: active = growth percent below 10; inactive = the rest.
Classes used: active, inactive

                                   compound      target_desc  assigned_class
0      Cc1ccc(N=Nc2c(N)nn(-c3ccccc3)c2N)cc1  OVCAR-4 ovarian        inactive
1  COc1ccc(C2=CN3CC=CCC3CC2=O)cc1 (stereo not given)  OVCAR-4 ovarian        inactive
2  CN1C(=O)/C(=C/c2ccc(C(=O)Nc3ncc(Cc4ccc(F)cc4)s3)cc2)SC1=S  OVCAR-4 ovarian        inactive
3  CCN(CC)c1ccc(/C=N\NC(=O)c2cccc(Nc3ccnc(C(F)(F)F)c3)c2)c(O)c1  OVCAR-4 ovarian        inactive
4   Cc1ccc2nc(Cl)c(Cn3nnnc3SCc3ccccc3)cc2c1  OVCAR-4 ovarian        inactive
5  Cn1cc(-c2nc(-c3c[nH]c4ccncc34)cs2)c2cc(Br)ccc21  OVCAR-4 ovarian          active
6            CCCCC(=O)Nc1ncc(Cc2ccccc2Cl)s1  OVCAR-4 ovarian        inactive
7  COC(=O)C1=C(C(=O)Nc2cccnc2)C2OC1(C(Cc1ccccc1)Oc1ccccc1)C1OC21 (stereo not given)  OVCAR-4 ovarian        inactive
8  CC(C)CN1CC(C(=O)Nc2ccc3c(c2)-c2ccccc2C3)CC1=O (stereo not given)  OVCAR-4 ovarian        inactive
9  COc1ccc(NC(=O)c2cccc(C3CCc4c(cc(OC)c(OC)c4OC)O3)c2)cc1 (stereo not given)  OVCAR-4 ovarian        inactive

----------
System: SR leukemia
experiment: NCI-60 one-dose screen, 48 h (100 = growth as untreated, 0 = no growth, -100 = all killed)
measurement.setup: 10 µM unless noted
About 83,000 compounds went through this panel and 20% of them were active in at least one assay; those are over-represented in the sample as a whole.
Below, each entry is listed alongside its reported growth.
measured.parameter: growth (%)

                                    molecule  quantitative_result
 0             O=C(/C=C\c1ccco1)/C=C/c1ccco1                  103
 1  O=C1OCC2=C1C(c1cccc(C(F)(F)F)c1)c1cc3c(cc1N2CCO)OCO3 (stereo unspecified)                 15.7
 2  CCN(CC)CCOc1ccc(Nc2ncc3cc(-c4ccc(O)cc4)c(=O)n(C)c3n2)cc1                -20.5
 3  COc1cc2c3c(c1O)-c1ccccc1[C@@H]1OC(=O)N(CC2)[C@H]31                 98.2
 4  Cc1cccc(-n2c(C)nc3ccc(N4CCCNC4=O)cc3c2=O)c1                   98
 5  CCC(C)Nc1ccc(NC(C)CC)cc1 (stereo unspecified)                 76.1
 6  N#Cc1nc2c(S(=O)(=O)c3ccccc3)c(N)n(Cc3cccnc3)c2nc1C#N                 36.1
 7   COc1ccc(-c2ccc(-c3ccc(C(=N)N)cn3)s2)cc1                 3.22
 8  COc1cc(C(=O)C(=O)c2cc(OC)c(O)c(OC)c2)cc(OC)c1O                  103
 9  Cc1ccc(O)c(NC(=O)c2ccc(CNc3ccnc(C(F)(F)F)c3)cc2)c1                 36.4
10           CCOC(=O)Nc1nc2ccc(SCC(C)C)cc2s1                 12.5
11  CNC(=O)c1cc(Oc2ccc3nc(NC(=O)Nc4ccc(Cl)c(Cl)c4)sc3c2)ccn1                 15.4
12  COc1cc2c(/C=C3\C(=O)Nc4ccccc43)c(C(=O)O)[nH]c2cc1C                 91.3
13  CC(=O)c1c(Nc2ccc(F)c(F)c2F)[nH]c2c(F)cc(F)cc2c1=O                 8.21
14  CCCCCCCCn1ccc2cc(NC(=O)Cn3cc(CN4CCN(CC)CC4)nn3)ccc21                 2.27
15   C#CCn1cnc2c(Nc3cccc(NC(=O)CCl)c3)ncnc21                 9.78
16  C=CC(=O)NCCOc1cccc(Nc2cc(NCCCNC(=O)C3CCC3)c(Br)cn2)c1                -10.1
17  COc1cc2c(c(OC)c1OC)C(=O)CC(c1cccc(NC(=O)c3ccccc3Br)c1)O2 (stereo unspecified)                 68.4
18  CC1(C)CC2=C3C=C[C@@H]4[C@@]5(C)CC[C@H](O)C(C)(C)[C@@H]5CC[C@@]4(C)[C@]3(C)CC[C@@]2(C(=O)O)CC1=O                 50.5
19  COc1cc(C2Cc3ncccc3-c3[nH]c(=O)c4cccnc4c32)cc(OC)c1OC (stereo unspecified)                 11.8
20  O=C1CCC(C(=O)NN(c2ccccc2)c2ccccc2)N1 (stereo unspecified)                 19.7

----------
System: SK-OV-3 ovarian
experiment: NCI-60 one-dose screen, 48 h (100 = growth as untreated, 0 = no growth, -100 = all killed)
measurement.setup: 10 µM unless noted
This is part of a sample that, as a whole, favours compounds with a hit. Of some 83,000 tested, about 20% had one in any assay.
API: label(entry) gives Satisfied if the entry's growth is strictly smaller than 90%; on equality or larger values it gives Not satisfied.

compound	assigned.class
N#CC(C#N)N=Nc1ccc(Cl)cc1Cl	Satisfied
COc1cc(C(=O)/C=C/c2c(-c3cccs3)nc3ccccn23)cc(OC)c1OC	Satisfied
C=C1C(=O)O[C@H]2[C@H]1CC/C(CNC(=O)c1cc3ccccc3[nH]1)=C\CC[C@@]1(C)O[C@@H]21	Satisfied
CCOC(=O)c1c2c(n3c1NCC3)-c1ccccc1C2=O	Not satisfied
COc1cc(C2C3=C(COC3=O)N(CCO)c3cc4c(cc32)OCCO4)cc(OC)c1OC (stereo not given)	Satisfied
C#CC#CC#CC#CC#CC#CC#CC#CC[C@H]1OC[C@@H](COC(=O)O[C@@H](C(=O)O[C@H]2C[C@@]3(O)[C@@H](OC(=O)c4ccccc4)[C@@H]4[C@]5(OC(C)=O)CO[C@@H]5C[C@H](O)[C@@]4(C)C(=O)[C@H](OC(C)=O)C(=C2C)C3(C)C)[C@@H](NC(=O)c2ccccc2)c2ccccc2)O1	Satisfied
Cn1c(=O)c2c(nc(NC3=NS(=O)(=O)c4ccccc43)n2Cc2ccccc2)n(C)c1=O	Not satisfied
Cc1nc2sc(C(=O)Nc3cccc(Cl)c3)c(N)c2cc1C(O)c1ccccc1 (stereo not given)	Satisfied
C[C@@H]1CC[C@@]2(OC1)O[C@H]1C[C@H]3[C@@H]4CC=C5C[C@@H](O[C@@H]6O[C@H](CO)[C@@H](O[C@@H]7O[C@@H](CO)[C@H](O)[C@H]7O)[C@H](O)[C@H]6O[C@@H]6O[C@@H](C)[C@H](O)[C@@H](O)[C@H]6O)CC[C@]5(C)[C@H]4CC[C@]3(C)[C@H]1[C@@H]2C	Satisfied
CCOC(=O)Nc1nc2ccc(SCC(C)C)cc2s1	Satisfied
CC(C)=CC(=O)N[C@@H]1CC2CCC3C(CC[C@@]4(C)C3CC[C@@H]4C(C)N(C)C)[C@@]2(C)C[C@@H]1O (stereo not given in full)	Satisfied
Nc1n[nH]c2ccc([C@@H]3Nc4cc5[nH]ncc5cc4[C@H]4C5CCC(C5)[C@@H]34)cc12 (stereo not given in full)	Satisfied
CC1=NN(c2ccc(Cl)cc2)CC1(C)N=O (stereo not given)	Not satisfied
CC(C)(CO)N(CCO)CCO	Not satisfied
CCCCCSB(SCCCCC)c1ccccc1	Not satisfied
CC1(C)CCC(S(=O)(=O)c2ccc3c(c2)/C(=N\O)c2cc(S(=O)(=O)N4CCN(c5ccc(F)cc5O)CC4)ccc2-3)CC1	Satisfied
CCNCc1ccc(O)c2ncccc12	Satisfied
COc1ccc2c(c1)c(-c1nonc1-c1c[nH]c3ccc(Br)cc13)cn2C	Satisfied
N#C/C(=C\c1ccc(Cl)cc1Cl)C(=O)Nc1ncc(Cc2ccc(Cl)c(Cl)c2)s1	Not satisfied
N#Cc1nc(-c2ccc(F)cc2)oc1S(=O)(=O)N1CCN(c2ccc(F)cc2)CC1	Not satisfied
CCOC(=O)c1c(NC(=O)c2ccc(OC)cc2)sc2c(CN(C)C)c(O)ccc12	Not satisfied
Nc1c(C(=O)Nc2ccncc2)sc2nc3c(cc12)CCCCC3	Satisfied
CC/C=C1/C(=O)C=C[C@@H]1C/C=C\CCCC(=O)OC	Not satisfied
N#Cc1c(N2CCOCC2)nc(=S)[nH]c1-c1ccccc1	Satisfied
CS(=O)(=O)Nc1cncc(-c2ccc3ncnc(Nc4ccc(F)c(Cl)c4)c3c2)c1	Satisfied
Oc1c(CN2CCCC2)cc(COCc2ccccc2)c2cccnc12	Satisfied
C/C(=N\Nc1nc(C)cs1)c1cc2ccccc2o1	Not satisfied
CCN1C(=O)N(CC)C2C1NN=c1s/c(=C\c3ccccc3Br)c(=O)n12 (stereo not given)	Satisfied
Cc1ccc(C)c2c1C(O)(C#Cc1ccccc1)c1ccccc1C2(O)C#Cc1ccccc1 (stereo not given)	Satisfied
Cc1ccc(/C=C/C(=O)c2ccc(NC(=O)CSc3nc4c([nH]3)c(=O)n(C)c(=O)n4C)cc2)c(C)c1	Satisfied
O=C1NC(=C(Cl)Cl)/C(=N/S(=O)(=O)NCCc2c[nH]c3ccccc23)N1	Satisfied

Origin of values: PubChem BioAssay (NCI)
